System: CCRF-CEM
EXPERIMENT_SUMMARY: NCI tumour cell line growth inhibition, 48 h
The source made the active and inactive calls. No stated cut-off is given here; in the data, active = GI50 up to about 1.1 µM and inactive = higher.
READOUT: GI50

COMPOUND | GI50
N=C1OC(CN2CCN(c3ccccc3)CC2)CN1C(=S)Nc1ccccc1 (stereo not given) | 37.1 µM (inactive)
O=c1cc(N2CCCC2)[nH]c(=O)n1-c1cccc(C(F)(F)F)c1 | > 100 µM (inactive)
CC[S+]([O-])C(=O)N(O)c1ccc(Cl)cc1 (stereo not given) | 12.6 µM (inactive)
CC(C)NC(=O)OCc1c(COC(=O)NC(C)C)c(-c2cc[n+](COC(=O)Cc3ccccc3)cc2)n2c1CCC2 | 38.5 µM (inactive)

Query GI50 for `Cn1c(=O)c2c(nc3n(Cc4ccccc4)c(=O)c(Br)cn23)n(C)c1=O`
> 100 µM (inactive)

Query GI50 for `O=[N+]([O-])c1ccc(N/N=C2\C=CCCC2)c([N+](=O)[O-])c1`
> 100 µM (inactive)

Query GI50 for `COC(=O)c1ccccc1/C=C1\Cc2ccc3c(c2C1=O)CCC3`
> 100 µM (inactive)

###

Test system: CAKI-1
EXPERIMENT_SUMMARY: NCI tumour cell line growth inhibition, 48 h
Calls of active or inactive are those of the source. Rule as the data show it: active = GI50 up to about 1.1 µM and inactive = higher.
READOUT: GI50

Consider the worked cases shown below.
COMPOUND | MEASURED_ON | GI50
Cn1cnc([N+](=O)[O-])c1Sc1nnc(-c2ccc(Cl)cc2)n1C | CAKI-1 | 15.9 µM (inactive)
C=C1C(=O)OC2CC(C)C(C(O)CC(C)O)=CCC12 (stereo not given) | CAKI-1 | 4.3 µM (inactive)
COc1ccc(NC(=O)/C(=N/O)C(C)=O)cc1 | CAKI-1 | > 100 µM (inactive)
COC(=O)c1c(OC(C)=O)ccc2c1c1c(n2Cc2ccccc2)C(=O)c2ccccc2C1=O | CAKI-1 | 22 µM (inactive)

Attention now turns to another entry.
Query GI50 for `Brc1ccc(/C(N=N/C(=N\Sc2ccccc2)c2ccc(Br)cc2)=N/Sc2ccccc2)cc1`
> 100 µM (inactive)

###

System: UO-31
EXPERIMENT_SUMMARY: NCI tumour cell line growth inhibition, 48 h
Calls of active or inactive are those of the source. No stated cut-off is given here; in the data, active = GI50 up to about 1.1 µM and inactive = higher.
Reported GI50 values follow for various compounds

Query GI50 for `CON(C)C(=O)CNC(=O)OCC1c2ccccc2-c2ccccc21`
63.2 µM (inactive)

Query GI50 for `CCCCn1c(N)c(-c2nc3ccccc3o2)sc1=S`
20 µM (inactive)

Query GI50 for `O=c1c2ccccc2n2c(-c3ccc(O)cc3)nnc2n1-c1ccccc1`
3.72 µM (inactive)

Query GI50 for C=C1C(=O)OC2C1C(OC(=O)/C(C)=C\C)CC1(CO1)C1C(O)C=C(C)C21O (stereo unspecified)
10.3 µM (inactive)

Query GI50 for `C/C(CC(=O)Nc1ccc([N+](=O)[O-])cc1)=N/N=C(N)N`
> 100 µM (inactive)

Query GI50 for CC1(C)CC2(C)CC1CC2(O)c1ccccc1 (stereo unspecified)
> 100 µM (inactive)

###

System: UACC-62
EXPERIMENT_SUMMARY: NCI tumour cell line growth inhibition, 48 h
Active and inactive are the calls of the source. No stated cut-off is given here; in the data, active = GI50 up to about 1.1 µM and inactive = higher.
Reported GI50 values follow for various molecules

Consider the worked cases shown below.
MOLECULE | GI50
COC1=CC(=O)c2ccccc2C1(C)C1=NC(C)(C)CO1 (stereo not given) | > 100 µM (inactive)
N#Cc1c(O)c(/N=N/c2ccccc2F)c(=O)n2c1[nH]c1ccccc12 | 20.6 µM (inactive)
CC(=O)N1CCC(=O)/C(=C/c2ccccc2)C1 | 24.7 µM (inactive)
CCOC(=O)/C(=C/c1ccc(C#N)cc1)N(CC)CC | > 100 µM (inactive)
Cc1cc(C)nc(SCCc2cccc[n+]2C)n1 | > 100 µM (inactive)

Attention now turns to another entry.
Query GI50 for O=C(c1ccc(O)cc1)C1c2c3c(cc(O)c2C(c2ccc(O)cc2)C1c1cc(O)cc(O)c1)OC(c1ccc(O)cc1)C3c1cc2c(cc1O)OC(c1ccc(O)cc1)C2c1cc(O)cc(O)c1 (stereo not given)
0.065 µM (active)

###

Reported GI50 values follow for various molecules
Test system: M14
EXPERIMENT_SUMMARY: NCI tumour cell line growth inhibition, 48 h
Activity calls are given as the source filed them. No stated cut-off is given here; in the data, active = GI50 up to about 1.1 µM and inactive = higher.

Quote M14 GI50 for entry COc1ccc(COC2CC(OC)OC(C)C2OC(=O)c2ccccc2)cc1 (centres undefined) .
34.6 µM (inactive)

Quote M14 GI50 for entry `O=C(Nc1cccc2c1C(=O)c1c(NC(=O)c3ccccc3)ccc(Nc3cccc4c3C(=O)c3ccccc3C4=O)c1C2=O)c1ccccc1` .
> 100 µM (inactive)

Quote M14 GI50 for entry O=C(c1ccc(O)cc1)C1c2c3c(cc(O)c2C(c2ccc(O)cc2)C1c1cc(O)cc(O)c1)OC(c1ccc(O)cc1)C3c1cc2c(cc1O)OC(c1ccc(O)cc1)C2c1cc(O)cc(O)c1 (centres undefined) .
> 12.5 µM (inactive)

Quote M14 GI50 for entry C=C1C(=O)OC2C1C(OC(=O)/C(C)=C\C)CC1(CO1)C1C(O)C=C(C)C21O (centres undefined) .
2.63 µM (inactive)

Quote M14 GI50 for entry CCN1C(=O)C(N=[N+]=[N-])(c2ccccc2)C(=O)c2ccccc21 (centres undefined) .
41.9 µM (inactive)

Quote M14 GI50 for entry `COC(=O)c1c(OC(C)=O)ccc2c1c1c(n2Cc2ccccc2)C(=O)c2ccccc2C1=O` .
22 µM (inactive)

Quote M14 GI50 for entry CC(O)CNC1=CC(=O)C(=O)c2ccccc21 (centres undefined) .
15.5 µM (inactive)

Quote M14 GI50 for entry Cc1ccc(-c2nc(-c3cnccn3)n(C3OC(CO)C(O)C(O)C3O)n2)cc1 (centres undefined) .
> 100 µM (inactive)

Quote M14 GI50 for entry `CCCCc1c(O)nc(Nc2nc3ccccc3[nH]2)[nH]c1=O` .
> 100 µM (inactive)

###

Test system: SK-MEL-28
EXPERIMENT_SUMMARY: NCI tumour cell line growth inhibition, 48 h
The source made the active and inactive calls. No stated cut-off is given here; in the data, active = GI50 up to about 1.1 µM and inactive = higher.
READOUT: GI50

SMILES_STRUCTURE | GI50
Clc1ccc(NCc2nnc(COc3ccc(OCc4nnc(CNc5ccc(Cl)cc5)o4)c(Cl)c3)o2)cc1 | 75.3 µM (inactive)
COC(=O)c1sc(=NC(=S)N2CCCCC2)sc1C(=O)OC | > 100 µM (inactive)
Cc1ccc(-c2c(C#N)c(-c3ccc([N+](=O)[O-])cc3)c(C#N)c(=O)n2NS(=O)(=O)c2ccccc2)cc1 | 36.3 µM (inactive)
Cc1cc(C)n(-c2nc(-n3nc(C)cc3C)nc(-n3nc(C)cc3C)n2)n1 | > 100 µM (inactive)

Attention now turns to another entry.
Quote SK-MEL-28 GI50 for entry `CC(C)Oc1c(C2(c3ccccc3O)SCCCS2)c(=O)c1=O` .
> 100 µM (inactive)

###

Tested on: MDA-N
EXPERIMENT_SUMMARY: NCI tumour cell line growth inhibition, 48 h
Active and inactive are the calls of the source. Cut-off read from the data, not from the text of the source: active = GI50 up to about 1.1 µM and inactive = higher.
Result category, one only: Y = active, N = inactive

See these solved cases before continuing.
COMPOUND | MEASURED_ON | CATEGORY_LABEL
CSc1ccc(/C=C2\N=C(c3ccccc3)N(/N=C/c3cc4cc(C)ccc4nc3Cl)C2=O)cc1 | MDA-N | N
COC(=O)c1c(C)ccc2c(O)c3c(cc12)C(=O)c1c2c(cc(O)c1C3=O)C1(C)OC(C)(O2)C(O)C(N(C)C)C1O (configuration not stated) | MDA-N | N
COC(=O)CCSC1=CC(=O)c2nc3ccccc3c3ccnc1c23 | MDA-N | N
O=C(CN1CCOCC1)c1ccc2[nH]c(=O)oc2c1 | MDA-N | N
CCCOc1cc2c(cc1O)CC[C@@H]1[C@@H]2CC[C@]2(C)[C@@H](O)CC[C@@H]12 | MDA-N | Y
CC(C)CCNC(=O)C(CC(C)C)NC(=O)[C@H]1O[C@@H]1C(=O)O (some centres not stated) | MDA-N | N

Record lookup: outcome of this test for `COc1ccc2[nH]c3ccc4cc[n+](CCN5CCC(C6CCN(CC[n+]7ccc8ccc9[nH]c%10ccc(OC)cc%10c9c8c7)CC6)CC5)cc4c3c2c1` ?
N

Record lookup: outcome of this test for `CON(C)C(=O)CNC(=O)OCC1c2ccccc2-c2ccccc21` ?
N

Record lookup: outcome of this test for CC(C)=C1C(=O)C[C@@]2(C)C[C@H]3OC3(C)CC/C=C(/C)CCC12 (some centres not stated) ?
N

Record lookup: outcome of this test for `CN(C(=O)Cc1ccccc1)n1cnn(CC(=O)OC(C)(C)C)c1=S` ?
N

Record lookup: outcome of this test for `CCOC(=O)C(Cc1cc(OC)c(CC(C(=O)OCC)C(=O)OCC)cc1OC)C(=O)OCC` ?
N

###

Tested on: NCI-H460
EXPERIMENT_SUMMARY: NCI tumour cell line growth inhibition, 48 h
Calls of active or inactive are those of the source. Rule as the data show it: active = GI50 up to about 1.1 µM and inactive = higher.
READOUT: GI50

Consider the worked cases shown below.
MOLECULE | READOUT | MEASURED_VALUE
COC(O)C(=O)c1ccc2c(c1)CC1(C2)Cc2cc3c(cc2C1=O)CCC3 (stereo not given) | GI50 | 27.9 µM (inactive)
Cc1nc(C)c(N2CCN(C#N)CC2)c(O)n1 | GI50 | > 100 µM (inactive)
CC1(C)S[C@@H]2[C@H](NC(=O)[C@H](N)c3ccccc3)C(=O)N2[C@H]1C(=O)O | GI50 | > 100 µM (inactive)

Quote NCI-H460 GI50 for entry `COC(=O)C1=C(C(=O)OC)C(N(C)C)C(C(=O)OC)=C(C(=O)OC)S1` .
57.1 µM (inactive)
